Reference source: PubChem BioAssay

Test system: R275C
Assay: BK channel mutant inhibitors and activators – cell-based, U2OS BacMam, thallium flux, beta subunits, selectivity assay, profiling panel (AID 1259406);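 note: initial slope of Thallos dye fluorescence rise after thallium is added; log ratio against the mean of 0.3% DMSO vehicle wells on the same plate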
Settings: U2OS BacMam BK variants, at 30 µM
READOUT_NAME: log fold change Tl+ flux

• CC1(C)S[C@@H]2[C@H](N=CN3CCCCCC3)C(=O)N2[C@H]1C(=O)O = 0.00945
• CC(Cc1ccccc1)(NC(=O)CN)c1ccccc1 (stereo not given) = 0.0158
• COC(=O)C1=C(C)NC(C)=C(C(=O)OC(C)C)C1c1cccc2nonc12 (stereo not given) = -0.0742
• CCN1CC(CCN2CCOCC2)C(c2ccccc2)(c2ccccc2)C1=O (stereo not given) = -0.0141
• Cc1c(O)cccc1C(=O)N[C@@H](CSc1ccccc1)[C@H](O)CN1C[C@H]2CCCC[C@H]2C[C@H]1C(=O)NC(C)(C)C = -0.105
• CC(C)(C)NC(=O)[C@@H]1CN(Cc2cccnc2)CCN1C[C@@H](O)C[C@@H](Cc1ccccc1)C(=O)N[C@H]1c2ccccc2C[C@H]1O = -0.0278
• Clc1ccc2nsnc2c1NC1=NCCN1 = 0.0392
• O=C1[C@H]2CCCC[C@H]2C(=O)N1CCCCN1CCN(c2nsc3ccccc23)CC1 = -0.0177
• CC(C(=O)O)c1ccc(CC2CCCC2=O)cc1 (stereo not given) = -0.0259
• COc1cc(OC)c(C(=O)CCCN2CCCC2)c(OC)c1 = 0.0465

###

Biological target: Calcium-activated potassium channel subunit alpha-1 (Homo sapiens) + Leucine-rich repeat-containing protein 26 (Homo sapiens) (UniProt Q12791+Q2I0M4)
Sequence (Q2I0M4 whole entry, looked up, one chain of several): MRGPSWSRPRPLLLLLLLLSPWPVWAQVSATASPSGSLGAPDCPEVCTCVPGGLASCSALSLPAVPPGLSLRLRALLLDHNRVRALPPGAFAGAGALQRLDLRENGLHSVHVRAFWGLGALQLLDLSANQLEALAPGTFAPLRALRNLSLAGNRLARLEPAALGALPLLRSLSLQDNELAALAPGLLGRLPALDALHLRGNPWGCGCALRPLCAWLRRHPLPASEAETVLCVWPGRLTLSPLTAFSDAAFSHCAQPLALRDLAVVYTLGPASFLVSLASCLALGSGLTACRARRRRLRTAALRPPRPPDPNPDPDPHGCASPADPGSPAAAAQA
Assay: BK channel mutant inhibitors and activators – cell-based, U2OS BacMam, thallium flux, beta subunits, selectivity assay, profiling panel (AID 1259406);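 note: initial slope of Thallos dye fluorescence rise after thallium is added; log ratio against the mean of 0.3% DMSO vehicle wells on the same plate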
Conditions: U2OS BacMam BK variants, F380Y/Slo1WT/gamma1, at 30 µM
READOUT_NAME: log fold change Tl+ flux

* CC(C)[C@H](N)C(=O)OCCOCn1cnc2c(=O)[nH]c(N)nc21 | 0.0174
* Oc1ccc(C2CNCCc3c2cc(O)c(O)c3Cl)cc1 (configuration not stated) | 0.0552
* C#C[C@]1(O)CC[C@H]2[C@@H]3CCc4cc(O)ccc4[C@H]3CC[C@@]21C | 0.0947
* COc1cc(C(=O)NC2CCCNC2)cc(OC)c1OC (configuration not stated) | 0.00703
* Nc1[nH]c(=O)ncc1F | 0.00877
* CCCN1CCCC[C@H]1C(=O)Nc1c(C)cccc1C | -0.0126
* Clc1ccc2nsnc2c1NC1=NCCN1 | 0.00637
* CC(=O)OCC(=O)NCCCOc1cccc(CN2CCCCC2)c1 | -0.00356
* CC(C)(C)NC(=O)[C@H]1CC[C@H]2[C@@H]3CC[C@H]4NC(=O)C=C[C@]4(C)[C@H]3CC[C@]12C | -0.00445
* NCC1CCC(C(=O)Oc2ccc(CCC(=O)O)cc2)CC1 (configuration not stated) | 0.0182
* CCN1CCCC1CNC(=O)c1cc(S(=O)(=O)CC)c(N)cc1OC (configuration not stated) | -0.0597
* C[C@@H]1C[C@H]2[C@@H]3C[C@H](F)C4=CC(=O)C(Cl)=C[C@]4(C)[C@@]3(F)[C@@H](O)C[C@]2(C)[C@@]1(O)C(=O)CO | 0.0637
* O=c1[nH]cnc2c1ncn2[C@H]1CC[C@@H](CO)O1 | 0.0216
* Cc1nc2ccc(CN(C)c3ccc(C(=O)N[C@@H](CCC(=O)O)C(=O)O)s3)cc2c(=O)[nH]1 | -0.00311
* CC(C)NCC(O)COc1ccc(CCOCC2CC2)cc1 (configuration not stated) | -0.00804
* Cc1[nH]cnc1CN1CCc2c(c3ccccc3n2C)C1=O | 0.00572
* C[C@@H]1C[C@H]2[C@@H]3CCC4=CC(=O)C=C[C@]4(C)[C@@]3(F)[C@@H](O)C[C@]2(C)[C@H]1C(=O)CO | 0.0369
* N#Cc1ccc(C(c2ccc(C#N)cc2)n2cncn2)cc1 | 0.0131
* COc1ccccc1OCC(O)CN1CCN(CC(=O)Nc2c(C)cccc2C)CC1 (configuration not stated) | -0.0153
* COc1cc(OC)c(C(=O)CCCN2CCCC2)c(OC)c1 | 0.0079
* CC[N+](C)(CC)CCOC(=O)C(O)(c1ccccc1)C1CCCCC1 (configuration not stated) | 0.0349
* CCc1nn(CCCN2CCN(c3cccc(Cl)c3)CC2)c(=O)n1CCOc1ccccc1 | 0.00963

###

Assay: viability loss in pontine glioma line – cell-based, SU-DIPG-XIII, MIPE4.0, CellTiter-Glo, qHTS, dose response (AID 1347061);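 note: cells exposed to compound for 48 hours before readout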
Conditions: CellTiter-Glo ATP luminescence
Inconclusive results are not listed. Calls of active or inactive are those of the source. The limit is not given here; nearly all actives have AC50 up to about 37 µM.
READOUT_NAME: AC50

• Cn1c(=O)c2c(ncn2C)n(C)c1=O = inactive
• CCOC(=O)c1ncn2c1CN(C)C(=O)c1cc(F)ccc1-2 = inactive
• O=C1N(c2ccccc2)c2ccccc2C1(Cc1ccncc1)Cc1ccncc1 = inactive
• CCC1(C)CC(=O)NC1=O (stereo not given) = inactive
• CN(C)c1ccc2nc3ccc(=[N+](C)C)cc-3sc2c1 = 4.69 µM (active)
• Cn1nnc2c(C(N)=O)ncn2c1=O = inactive
• Cc1cnc(C(=O)O)c[n+]1[O-] = inactive
• Oc1ccc(OCc2ccccc2)cc1 = inactive
• CCOc1cc(N)c(Cl)cc1C(=O)NCC1CN(Cc2ccc(F)cc2)CCO1 (stereo not given) = inactive
• Nc1ccc(S(=O)(=O)Nc2ccccn2)cc1 = inactive
• NC(=O)c1ncn([C@@H]2O[C@H](CO)[C@@H](O)[C@H]2O)n1 = inactive
• NNc1nncc2ccccc12 = inactive
• CN(Cc1cc(Br)cc(Br)c1N)C1CCCCC1 = inactive
• COc1ccc2[nH]cc(CCNC(C)=O)c2c1 = inactive
• Cn1cnc2c1c(=O)[nH]c(=O)n2C = 23.5 µM (active)
• CNS(=O)(=O)Cc1ccc2[nH]cc(CCN(C)C)c2c1 = inactive
• CN(C/C=C/C#CC(C)(C)C)Cc1cccc2ccccc12 = inactive
• O=C1CCc2cc(OCCCCc3nnnn3C3CCCCC3)ccc2N1 = inactive
• CC(N)C12CC3CC(CC(C3)C1)C2 (stereo not given) = inactive
• CC(c1cc2ccccc2s1)N(O)C(N)=O (stereo not given) = inactive
• CN1CCN(CCCN2c3ccccc3Sc3ccc(Cl)cc32)CC1 = 0.0105 µM (active)
• CCOC(=O)C1=C[C@]2(CC)CCCN3CCc4c(n1c1ccccc41)[C@@H]32 = 26.4 µM (active)
• NC(=O)c1ncn([C@@H]2O[C@H](CO)[C@@H](O)[C@H]2O)c1O = inactive
• CC1(C)O[C@@H]2C[C@H]3[C@@H]4C[C@H](F)C5=CC(=O)C=C[C@]5(C)[C@@]4(F)[C@@H](O)C[C@]3(C)[C@]2(C(=O)CO)O1 = inactive
• CCCCCN(C)CCC(O)(P(=O)(O)O)P(=O)(O)O = inactive

###

viability decrease (inhibition) values by entry
Test: NPC library primary testing for decreased DLD-1 cell viability via CellTiter-Glo (AID 1117346)
Conditions: DLD-1 viability, CellTiter-Glo luminescence; at 20 µM (top of the series)
READOUT_NAME: viability decrease (inhibition) (%)

• Cc1cc2nc3c(=O)[nH]c(=O)nc-3n(C[C@H](O)[C@H](O)[C@H](O)CO)c2cc1C = -5.4
• CC(c1cc2ccccc2s1)N(O)C(N)=O (centres undefined) = -3.8
• OCc1ccccc1O = -17.8
• Cc1ncc([N+](=O)[O-])n1CCO = 55
• Nc1ccc(S(=O)(=O)NC(=O)c2ccccc2)cc1 = -14.3
• CCCCCCCCCCCCCCCCOP(=O)([O-])OCC[N+](C)(C)C = 103
• O=C(CCBr)N1CCN(C(=O)CCBr)CC1 = -14
• CCN(CC)Cc1cc(Nc2ccnc3cc(Cl)ccc23)ccc1O = 44.8
• NC(=O)c1ccc([N+](=O)[O-])cc1Cl = 3.8
• CCOC(=O)C1=C(C)NC(C)=C(C(=O)OCC)C1c1ccccc1/C=C/C(=O)OC(C)(C)C = 101
• NS(=O)(=O)c1cc2c(cc1Cl)NC(C(Cl)Cl)NS2(=O)=O (centres undefined) = 6.3
• CC(=O)OCC1=C(C(=O)O)N2C(=O)[C@@H](NC(=O)Cc3cccs3)[C@H]2SC1 = -1
• CN1CCC(=C2c3ccccc3CC(=O)c3sccc32)CC1 = -6.6
• Cc1cccc(C(=O)O)c1O = -4.5
• CC(=O)OCC(=O)[C@H]1CC[C@H]2[C@@H]3CCC4=CC(=O)CC[C@]4(C)[C@H]3CC[C@]12C = -9.6
• Oc1c(Br)cc(Br)c2cccnc12 = 99.7
• CCN1CCC[C@H]1CNC(=O)c1cc(S(N)(=O)=O)ccc1OC = -5.7
• CCCOc1ccc2nc(NC(=O)OC)[nH]c2c1 = 38.1
• CN(C)C(=O)Nc1ccc(Cl)c(Cl)c1 = 13.6
• CO[C@]12C[C@@H](COC(=O)c3cncc(Br)c3)CN(C)[C@@H]1Cc1cn(C)c3cccc2c13 = 23.6
• CN(C/C=C/C#CC(C)(C)C)Cc1cccc2ccccc12 = 70.1
• O=C1c2cccc3c2[C@H](CCC3)CN1[C@@H]1CN2CCC1CC2 = 29.6
• Cn1c([N+](=O)[O-])cnc1COC(N)=O = -13.8
• Cc1c(N(C)C)c(=O)n(-c2ccccc2)n1C = -6.4
